Experiment: Pharmacokinetic measurements of H3B-6527 capsules in patients (trial NCT02834780), plasma LC-MS/MS
Type: in vivo, human
Conditions: human, plasma, oral, 1400 mg, 1400 mg QD, fed, Day 1; Table 6, actual times after QC; read-out: Half-life, geometric mean (CV%) (converted)
propertyMeasured: half-life (h)

1) C=CC(=O)Nc1cc(N2CCN(CC)CC2)ccc1Nc1cc(N(C)C(=O)Nc2c(Cl)c(OC)cc(OC)c2Cl)ncn1
4.13

---

Test: Pharmacokinetic measurements of H3B-6527 capsules in patients (trial NCT02834780), plasma LC-MS/MS
Type: in vivo, human
Details: human, plasma, oral, 600 mg, 600 mg QD, fasted, Day 1; Table 6, actual times after QC; read-out: Half-life, geometric mean (CV%) (converted)
propertyMeasured: half-life (h)

1) C=CC(=O)Nc1cc(N2CCN(CC)CC2)ccc1Nc1cc(N(C)C(=O)Nc2c(Cl)c(OC)cc(OC)c2Cl)ncn1
7.19

---

Assay: Pharmacokinetic measurements of H3B-6527 capsules in patients (trial NCT02834780), plasma LC-MS/MS
Type: in vivo, human
Conditions: human, plasma, oral, 1000 mg, 1000 mg QD, fasted, Day 8; Table 6, actual times after QC; read-out: Cmax, geometric mean (CV%)
propertyMeasured: Cmax (ng/mL)

1. C=CC(=O)Nc1cc(N2CCN(CC)CC2)ccc1Nc1cc(N(C)C(=O)Nc2c(Cl)c(OC)cc(OC)c2Cl)ncn1 [H3B-6527]
187

---

Assay: Pharmacokinetic measurements of H3B-6527 capsules in patients (trial NCT02834780), plasma LC-MS/MS
Assay type: in vivo, human
Conditions: human, plasma, oral, 500 mg, 500 mg BID, fasted, Day 1; Table 5, nominal times; read-out: Half-life, geometric mean (CV%) (converted)
propertyMeasured: half-life

1. C=CC(=O)Nc1cc(N2CCN(CC)CC2)ccc1Nc1cc(N(C)C(=O)Nc2c(Cl)c(OC)cc(OC)c2Cl)ncn1 [H3B-6527]
1.9 h

---

Experiment: Pharmacokinetic measurements of H3B-6527 capsules in patients (trial NCT02834780), plasma LC-MS/MS
Format: in vivo, human
Details: human, plasma, oral, 700 mg, 700 mg BID, fed, Day 8; Table 6, actual times after QC; read-out: Cmax, geometric mean (CV%)
propertyMeasured: Cmax (ng/mL)

1. C=CC(=O)Nc1cc(N2CCN(CC)CC2)ccc1Nc1cc(N(C)C(=O)Nc2c(Cl)c(OC)cc(OC)c2Cl)ncn1
167

---

Assay: Pharmacokinetic measurements of H3B-6527 capsules in patients (trial NCT02834780), plasma LC-MS/MS
Assay type: in vivo, human
Conditions: human, plasma, oral, 300 mg, 300 mg QD, fasted, Day 8; Table 6, actual times after QC; read-out: Cmax, geometric mean (CV%)
propertyMeasured: Cmax (ng/mL)

1. C=CC(=O)Nc1cc(N2CCN(CC)CC2)ccc1Nc1cc(N(C)C(=O)Nc2c(Cl)c(OC)cc(OC)c2Cl)ncn1
10.8

---

Experiment: Pharmacokinetic measurements of H3B-6527 capsules in patients (trial NCT02834780), plasma LC-MS/MS
Assay type: in vivo, human
Settings: human, plasma, oral, 700 mg, 700 mg BID, fed, Day 1; Table 6, actual times after QC; read-out: Tmax, median (min-max)
propertyMeasured: Tmax (h)

1) C=CC(=O)Nc1cc(N2CCN(CC)CC2)ccc1Nc1cc(N(C)C(=O)Nc2c(Cl)c(OC)cc(OC)c2Cl)ncn1
2.02

---

Assay: Pharmacokinetic measurements of H3B-6527 capsules in patients (trial NCT02834780), plasma LC-MS/MS
Assay type: in vivo, human
Conditions: human, plasma, oral, 2000 mg, 2000 mg QD, fed, Day 8; Table 6, actual times after QC; read-out: Half-life, geometric mean (CV%) (converted)
Experimental: A description of the first in human clinical trial for H3B-6527 can be found at the ClinicalTrials.gov by searching for trial identifier NCT02834780. […] Blood samples are collected at the planned time points from each patient and centrifuged. […] The concentration data are then analyzed using Phoenix® WinNonlin software to obtain PK parameters. […]
propertyMeasured: half-life (h)

1. C=CC(=O)Nc1cc(N2CCN(CC)CC2)ccc1Nc1cc(N(C)C(=O)Nc2c(Cl)c(OC)cc(OC)c2Cl)ncn1
4.98

---

Experiment: Pharmacokinetic measurements of H3B-6527 capsules in patients (trial NCT02834780), plasma LC-MS/MS
Type: in vivo, human
Conditions: human, plasma, oral, 2000 mg, 2000 mg QD, fed, Day 1; Table 6, actual times after QC; read-out: Cmax, geometric mean (CV%)
Experimental: A description of the first in human clinical trial for H3B-6527 can be found at the ClinicalTrials.gov by searching for trial identifier NCT02834780. […] Blood samples are collected at the planned time points from each patient and centrifuged. […] The concentration data are then analyzed using Phoenix® WinNonlin software to obtain PK parameters. […]
propertyMeasured: Cmax (ng/mL)

1. C=CC(=O)Nc1cc(N2CCN(CC)CC2)ccc1Nc1cc(N(C)C(=O)Nc2c(Cl)c(OC)cc(OC)c2Cl)ncn1
540

---

Experiment: Pharmacokinetic measurements of H3B-6527 capsules in patients (trial NCT02834780), plasma LC-MS/MS
Type: in vivo, human
Settings: human, plasma, oral, 1400 mg, 1400 mg QD, fasted, Day 1; Table 5, nominal times; read-out: Half-life, geometric mean (CV%) (converted)
propertyMeasured: half-life

1. C=CC(=O)Nc1cc(N2CCN(CC)CC2)ccc1Nc1cc(N(C)C(=O)Nc2c(Cl)c(OC)cc(OC)c2Cl)ncn1
5.3 h

---

Test: Pharmacokinetic measurements of H3B-6527 capsules in patients (trial NCT02834780), plasma LC-MS/MS
Format: in vivo, human
Conditions: 2000 mg QD, fed, Day 1; Table 5, nominal times
propertyMeasured: AUC, geometric mean (CV%) (ng·h/mL)

1) C=CC(=O)Nc1cc(N2CCN(CC)CC2)ccc1Nc1cc(N(C)C(=O)Nc2c(Cl)c(OC)cc(OC)c2Cl)ncn1 [H3B-6527]
3030

---

Test: Pharmacokinetic measurements of H3B-6527 capsules in patients (trial NCT02834780), plasma LC-MS/MS
Type: in vivo, human
Settings: human, plasma, oral, 600 mg, 600 mg QD, fed, Day 1; Table 6, actual times after QC; read-out: Half-life, geometric mean (CV%) (converted)
propertyMeasured: half-life (min)

1) C=CC(=O)Nc1cc(N2CCN(CC)CC2)ccc1Nc1cc(N(C)C(=O)Nc2c(Cl)c(OC)cc(OC)c2Cl)ncn1 [H3B-6527]
223

---

Test: Pharmacokinetic measurements of H3B-6527 capsules in patients (trial NCT02834780), plasma LC-MS/MS
Format: in vivo, human
Settings: human, plasma, oral, 1400 mg, 1400 mg QD, fed, Day 8; Table 6, actual times after QC; read-out: Cmax, geometric mean (CV%)
propertyMeasured: Cmax (ng/mL)

1. C=CC(=O)Nc1cc(N2CCN(CC)CC2)ccc1Nc1cc(N(C)C(=O)Nc2c(Cl)c(OC)cc(OC)c2Cl)ncn1
827

---

Assay: Pharmacokinetic measurements of H3B-6527 capsules in patients (trial NCT02834780), plasma LC-MS/MS
Type: in vivo, human
Conditions: human, plasma, oral, 500 mg, 500 mg BID, fasted, Day 1; Table 6, actual times after QC; read-out: Tmax, median (min-max)
propertyMeasured: Tmax

1. C=CC(=O)Nc1cc(N2CCN(CC)CC2)ccc1Nc1cc(N(C)C(=O)Nc2c(Cl)c(OC)cc(OC)c2Cl)ncn1 [H3B-6527]
2.12 h

---

Test: Pharmacokinetic measurements of H3B-6527 capsules in patients (trial NCT02834780), plasma LC-MS/MS
Type: in vivo, human
Settings: human, plasma, oral, 2000 mg, 2000 mg QD, fed, Day 8; Table 5, nominal times; read-out: Tmax, median (min-max)
propertyMeasured: Tmax (h)

1. C=CC(=O)Nc1cc(N2CCN(CC)CC2)ccc1Nc1cc(N(C)C(=O)Nc2c(Cl)c(OC)cc(OC)c2Cl)ncn1
2.5

---

Test: Pharmacokinetic measurements of H3B-6527 capsules in patients (trial NCT02834780), plasma LC-MS/MS
Type: in vivo, human
Conditions: 600 mg QD, fed, Day 1; Table 5, nominal times
propertyMeasured: AUC, geometric mean (CV%) (ng·h/mL)

1) C=CC(=O)Nc1cc(N2CCN(CC)CC2)ccc1Nc1cc(N(C)C(=O)Nc2c(Cl)c(OC)cc(OC)c2Cl)ncn1
1280

---

Assay: Pharmacokinetic measurements of H3B-6527 capsules in patients (trial NCT02834780), plasma LC-MS/MS
Format: in vivo, human
Details: human, plasma, oral, 1400 mg, 1400 mg QD, fed, Day 8; Table 5, nominal times; read-out: Half-life, geometric mean (CV%) (converted)
propertyMeasured: half-life

1. C=CC(=O)Nc1cc(N2CCN(CC)CC2)ccc1Nc1cc(N(C)C(=O)Nc2c(Cl)c(OC)cc(OC)c2Cl)ncn1
4.4 h
